# Experiment summary: DNDI: half-life in mouse S9 microsomes at a concentration of 1uM
# Format: ADME, subcellular, Liver, S9 fraction
Measured endpoint: half-life at 1 µM

As a guide, the following entries are already answered.
Smiles string	Obs value
Cc1cc(NCCN(C)C)n2nc(-c3cccc(F)c3)cc2n1	0.317 h
Fc1ccc(-c2cc3nc(-c4ccccc4)cc(NC4CCNCC4)n3n2)cc1	> 5.83 h
CN(C)CCNc1cc(-c2ccccc2)nc2cc(-c3ccc(F)cc3)nn12	> 5.83 h

[in] What measured half-life at 1 µM goes with CC(C)(C)c1cc(N2CCNCC2)n2nc(-c3ccc(F)cc3)cc2n1 ?
[out] > 5.83 h

Provenance of the data: ChEMBL document CHEMBL1857833
